Data origin: patent US20140056907A1

- targetUnderTest: T1, human ASIC1 (human, UniProt P78348 1-528)
- T1 sequence: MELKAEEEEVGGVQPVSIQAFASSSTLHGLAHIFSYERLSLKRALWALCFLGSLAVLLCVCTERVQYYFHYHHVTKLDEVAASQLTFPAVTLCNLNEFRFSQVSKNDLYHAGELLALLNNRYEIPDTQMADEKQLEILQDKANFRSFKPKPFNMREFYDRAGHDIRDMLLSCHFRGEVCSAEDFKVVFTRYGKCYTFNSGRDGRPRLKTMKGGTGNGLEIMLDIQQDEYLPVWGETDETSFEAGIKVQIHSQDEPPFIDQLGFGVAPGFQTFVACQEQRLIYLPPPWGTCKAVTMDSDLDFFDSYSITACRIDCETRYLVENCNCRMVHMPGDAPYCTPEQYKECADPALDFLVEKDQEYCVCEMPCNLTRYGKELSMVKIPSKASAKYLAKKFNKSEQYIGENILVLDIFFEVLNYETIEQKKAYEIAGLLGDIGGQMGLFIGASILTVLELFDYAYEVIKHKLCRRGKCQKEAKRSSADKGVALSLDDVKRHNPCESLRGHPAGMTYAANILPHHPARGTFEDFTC
- assayComment: cell-based or functional assay
reportedMetric: Current inhibition (%) at 100 nM antibody, Q-Patch, pH 6.0
Please provide the amount together with its unit, number first.

binder	readoutValue
H3M6715N (antibody, V domains shown, Chimeric: human variable, mouse constant domains; H3M prefix marks the Fc, isotype not spelled out) VH: EELVLESGGGLVQPGGSLRLSCAASGFMFSTYAMSWVRQAPGKGLEWVSLISGRDGNTYYADSVKGRFTISRDNSRNTLYLQLNSLRAEDTALYYCAKDTAVVPGYGMDVWGQGTTVTVSS VL: DIQMTQSPATLSASVGDRVTITCRASQTISNWLAWYQQRPGKAPKLLIYKASSLETGVPSRFSGSGSGTEFTLTISSLQPDDFASYYCQQYNSYSWTFGQGTKVEIK	30%

Lab note: H2M7103N (antibody, V domains shown, Chimeric: human variable, mouse constant domains; Fc isotype not spelled out; also called H2bM7103N) VH: EVQLVESGGGLVQPGGSLKLSCAASGFTFSSFWMSWVRQAPGKGLEWVANIKQNGSETYYVDSVKGRFTISRDNTKNSLYLQMNSLRAEDTAIYYCARGGRIQLWSSWFDPWGQGTLVTVSS VL: DIQMTQSPSSLSASVGDRVTITCRASQSIKNYLNWYQQKSGKAPKLLIYAASSLQSGVPSRVSGSGSGTDFTLTISSLHPEDFAAYYCQQSFSAPLTFGGGTKVEIK gave Current inhibition (%) at 100 nM antibody, Q-Patch, pH 6.0 of 92%

Lab note: H3M7102N (antibody, V domains shown, Chimeric: human variable, mouse constant domains; H3M prefix marks the Fc, isotype not spelled out) VH: EVQLLASGGGLVQPGGSLRLSCAASGFTFSSFAMSWVRQAPGKGLEWVSGISGSGGSTYYADSVKGRFTISRDNSKNTLYLQMNSLRAEDTAAYYCAKEAYKWQPWGQGIRVTVSS VL: DIQMTQSPSTLSASVGDRVSITCRASQSISSWLAWYQQKPGKAPKLLIYKASNLDSGVPSRFSGSGSGTDFTLTISSLQPDDFATYYCQQYNSYSYTFGQGTKLEIK gave Current inhibition (%) at 100 nM antibody, Q-Patch, pH 6.0 of 100%
